- protocol text: Apparent permeability across apical to basolateral side in human Caco-2 cells at 10 uM incubated for 2 hrs LC-MS/MS analysis
- Type: ADME, cell-based
- condition notes: Caco-2
quantity kind: Papp A→B at 2 h, 10 µM (×10⁻⁶ cm/s)
Provide only the numeric value, understood in ×10⁻⁶ cm/s.

Guide cases for Papp A→B at 2 h, 10 µM, answers given:
{"molecule": "COc1ccc2cc(C(=O)NCCN(C)C)oc2c1.CS(=O)(=O)O", "unit annotation": "×10⁻⁶ cm/s", "value observed": 9.34}
{"molecule": "CN/C(=N/CCSCc1nc[nH]c1C)NC#N", "unit annotation": "×10⁻⁶ cm/s", "value observed": 0.679}
{"molecule": "CC(=O)c1cc2ccccc2s1", "unit annotation": "×10⁻⁶ cm/s", "value observed": 22.1}

Below: the item to evaluate.
Please give the measured Papp A→B at 2 h, 10 µM for this molecule: COCCc1ccc(OCC(O)CNC(C)C)cc1 (stereo not given)
32.6

====

- protocol text: Solubility in PBS buffer at pH 7.4 assessed as precipitation of compound at 2500 nM
- Type: physicochemical
- condition notes: pH 7.4, 2.5 µM
quantity kind: solubility

{"compound smiles": "COc1ccc2cc(C(=O)OCCN3CCOCC3)oc2c1", "quantity kind": "solubility", "value observed": "Soluble"}
{"compound smiles": "COc1ccc2cc(C(=O)OCCP(=O)(O)O)oc2c1", "quantity kind": "solubility", "value observed": "Soluble"}

====

- protocol text: AUC (0 to infinity) in Sprague-Dawley rat at 2 mg/kg, iv by LC-MS/MS analysis
- Type: ADME, organism-based
- Set-up: route intravenous, time infinity, dose 2 mg/kg
- condition notes: in vivo
quantity kind: AUC(0-inf) (ng·h/mL)
Provide only the numeric value, understood in ng·h/mL.

Please give the measured AUC(0-inf) for this molecule: COc1ccc2cc(C(=O)NCCN(C)C)oc2c1.CS(=O)(=O)O
69

====

- protocol text: Solubility in PBS buffer at pH 7.4 assessed as precipitation of compound at 10000 nM
- Assay type: physicochemical
- condition notes: pH 7.4, 10 µM

{"compound smiles": "CCOC(=O)c1cc2cc3c(cc2s1)OCO3", "solubility": "Insoluble"}
{"compound smiles": "CCOC(=O)c1cc2ccc(OC)cc2s1", "solubility": "Insoluble"}
{"compound smiles": "COc1ccc2cc(C(=O)OCCCN(C)C)oc2c1", "solubility": "Insoluble"}

====

- protocol text: Solubility in PBS buffer at pH 7.4 assessed as precipitation of compound at 1250 nM
- Format: physicochemical
- condition notes: pH 7.4, 1.25 µM
quantity kind: solubility

Guide cases for solubility, answers given:
{"compound smiles": "CCOC(=O)c1cc2ccc(OC)cc2s1", "solubility": "Insoluble"}
{"compound smiles": "CCOC(=O)c1cc2cc3c(cc2s1)OCO3", "solubility": "Insoluble"}
{"compound smiles": "COc1ccc2cc(C(=O)NCCN(C)C)oc2c1", "solubility": "Soluble"}
{"compound smiles": "COc1ccc2cc(C(=O)OCCP(=O)(O)O)oc2c1", "solubility": "Soluble"}
{"compound smiles": "CN(C)CCOC(=O)c1cc2cc3c(cc2s1)OCO3", "solubility": "Soluble"}

Please give the measured solubility for this compound: COc1ccc2cc(C(=O)OCCCN(C)C)oc2c1
Soluble

Please give the measured solubility for this compound: CN(C)CCCOC(=O)c1cc2cc3c(cc2s1)OCO3
Insoluble
